Entry source: PubChem BioAssay (NCI)

# System: DLD-1 colon
# MEASUREMENT PROTOCOL: NCI tumour cell line growth inhibition, 48 h
PROPERTY: TGI

COMPOUND | TGI
CCOC1=CP(=O)(OCC)CC(C)=C1Cl (configuration not stated) | > 100 µM

Query: Find the measured TGI: item CN(C)C=C1C(=O)N(C)C(=O)N(C)C1=O , target or system DLD-1 colon.
Response: > 100 µM

Query: Find the measured TGI: item CCN(C1=CC(=O)NC2CCCCN12)c1ccccc1 (configuration not stated) , target or system DLD-1 colon.
Response: > 100 µM

Query: Find the measured TGI: item COc1cccc2c1C(CO)N1C(C#N)C3CC(C(=O)O)C(C1C2)N3C (configuration not stated) , target or system DLD-1 colon.
Response: 9.07 µM

Query: Find the measured TGI: item CCOC(=O)N1C=NC23C(c4ccccc4)C(c4ccccc4)C12C(=O)N(C)C(=O)N3C (configuration not stated) , target or system DLD-1 colon.
Response: > 100 µM

Query: Find the measured TGI: item O=c1nc2sc3ccc4ccccc4c3n2nc1-c1ccccc1 , target or system DLD-1 colon.
Response: > 100 µM

Query: Find the measured TGI: item CC1CC(c2ccc(Cl)cc2)=Nc2ccccc2S1 (configuration not stated) , target or system DLD-1 colon.
Response: > 100 µM

Query: Find the measured TGI: item CCc1cccc(C(C)C)c1NC(=O)C(=O)C1C(=O)NC(=O)NC1=O , target or system DLD-1 colon.
Response: > 100 µM

Query: Find the measured TGI: item CCCCCCCCCCCCCCCCP(=O)(OC)OC , target or system DLD-1 colon.
Response: 31.4 µM

Query: Find the measured TGI: item Cc1[nH]c2c(C)cccc2c1C1Cc2ccccc2N1 (configuration not stated) , target or system DLD-1 colon.
Response: 79.8 µM

Query: Find the measured TGI: item CSC1(C)CC2C(CC1N1CCCCC1)C2(C)C (configuration not stated) , target or system DLD-1 colon.
Response: > 100 µM

Query: Find the measured TGI: item COc1ccc2c(c1)O[C@@H]1c3ccc(OC)cc3OC[C@H]21 , target or system DLD-1 colon.
Response: > 100 µM

Query: Find the measured TGI: item COc1nc(NC2OC(COC(C)=O)C(OC(C)=O)C(OC(C)=O)C2OC(C)=O)c(N=CC=Nc2c(NC3OC(COC(C)=O)C(OC(C)=O)C(OC(C)=O)C3OC(C)=O)nc(OC)n(C)c2=O)c(=O)n1C (configuration not stated) , target or system DLD-1 colon.
Response: > 100 µM

Query: Find the measured TGI: item Cc1ncc(CCl)c2c1OC(C)(C)OC2 , target or system DLD-1 colon.
Response: > 100 µM

###

# maps each entry to its TGI
# Test system: SK-MEL-5 melanoma
# MEASUREMENT PROTOCOL: NCI tumour cell line growth inhibition, 48 h
# unit: µM | format: bare number

Sample records with TGI:
COMPOUND | RESULT UNITS | TGI
CCC[CH2][Sn]([CH2]CCC)([O]C(=O)Cc1ccc(F)cc1)[O]C(=O)Cc1ccc(F)cc1 | µM | 2.27
Cn1nc(-c2cccs2)cc1/N=C(\N)C(C)(C#N)Cc1ccccc1 (stereo unspecified) | µM | 37.4
CCCCC/C=C\C=C1\C(=O)C=C[C@@H]1C/C=C\CCCC(=O)O | µM | 11.2
O=C1Nc2c(Cl)cc(Cl)cc2/C1=N/N=C/c1ccccc1O | µM | 47.5
O=C1C[C@H](Sc2ccccc2)C2(OCCO2)[C@H]2ON3CCC[C@@H]3[C@@H]12 | µM | 21.6
Cc1ccc(S(=O)(=O)O/N=C2\CCC\C2=C/c2ccccc2)cc1 | µM | 28.4

Consider the record given below.
Query: Recorded TGI of COc1cc(C2c3cc4c(cc3OC(N3CCCCC3)C2C)OCO4)cc(OC)c1OC (stereo unspecified) , please.
Response: 17.6
